- Test description: Pharmacokinetics of AT and NT in healthy volunteers after a single dose of 25 mg amitriptyline
- Assay type: in vivo, human
- Experimental parameters: human, plasma, po, 25 mg, healthy volunteers, single oral 25 mg AT; CYP2C19 activity score 0 (n = 1); mean

| Molecule | Tmax / h |
| --- | --- |
| CN(C)CCC=C1c2ccccc2CCc2ccccc21 [Amitriptyline, amitriptyline] | 4 |
| CNCCC=C1c2ccccc2CCc2ccccc21 [Nortriptyline, nortriptyline] | 6 |

----------
Parameter: AUC(0-t). Scope: all listed entries.
- Test description: Pharmacokinetics of AT and NT in healthy volunteers after a single dose of 25 mg amitriptyline
- Assay type: in vivo, human
- Experimental parameters: both sexes, human, plasma, po, 25 mg, healthy volunteers, single oral 25 mg AT, plasma; 1 active OCT1 allele (n = 9); read-out: AUC48h
- Protocol: In order to enrich the study sample with the less frequent functionally deficient OCT1 variants, participants were selected based on OCT1 genotype from an internal database at the Institute of Clinical Pharmacology of the University Medical Center Göttingen. […] The lower limit of quantification was 0.5 ng/ml for AT and 0.1 ng/ml for NT. […] Pharmacokinetic parameters were calculated by non-compartmental analysis using Phoenix 64 WinNonlin version 6.3 (Certara Inc., Princeton, NJ, United States). […]
Endpoint name: AUC(0-t) (ng·h/mL)

| Compound | Measurement unit | Value |
| --- | --- | --- |
| CNCCC=C1c2ccccc2CCc2ccccc21 [Nortriptyline, nortriptyline] | ng·h/mL | 88.3 |
| CN(C)CCC=C1c2ccccc2CCc2ccccc21 [Amitriptyline, amitriptyline] | ng·h/mL | 184 |
